Each entry below carries its recorded EC50 (read off the curve).
# tgt: T1, human IL-21R expressed on cells (human, UniProt Q9HBE5 20-538)
# T1 construct: also called human IL-21R-BaF3; human IL-21R-TF1
# method_notes: cell-based ELISA on CHO cells transiently expressing human IL-21R; HRP anti-human IgG, A450

Study these solved cases before continuing.
{"binder": "AbL (antibody, IgG1, V domains shown, As for AbA: IgG1/lambda, CDR3 graft, residue limits derived; also called VH3/VL13) VH: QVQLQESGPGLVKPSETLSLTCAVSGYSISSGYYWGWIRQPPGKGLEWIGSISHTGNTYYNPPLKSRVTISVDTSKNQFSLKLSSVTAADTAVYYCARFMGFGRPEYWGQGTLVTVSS VL: SSELTQDPAVSVALGQTVRITCQGDSLRTYYASWYQQKPGQAPVLVIYGKHKRPSGIPDRFSGSSSGNTASLTITGAQAEDEADYYCVTRNRYGNPHVLFGGGTQLTVL", "measured_property": "EC50 (read off the curve)", "readout_value": "~1000 pM"}
{"binder": "AbH (antibody, IgG1, V domains shown, As for AbA: IgG1/lambda, CDR3 graft, residue limits derived; also called VHP/VL19) VH: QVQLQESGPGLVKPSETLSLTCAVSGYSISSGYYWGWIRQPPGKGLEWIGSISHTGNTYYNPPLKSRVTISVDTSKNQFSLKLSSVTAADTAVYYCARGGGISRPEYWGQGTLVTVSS VL: SSELTQDPAVSVALGQTVRITCQGDSLRTYYASWYQQKPGQAPVLVIYGKHKRPSGIPDRFSGSSSGNTASLTITGAQAEDEADYYCVARAVRGNPHVLFGGGTQLTVL", "measured_property": "EC50 (read off the curve)", "readout_value": "~400 pM"}

Reported EC50 (read off the curve) for parental 18A5 antibody (antibody, V domains shown, also called 18A5 IgG) VH: QVQLQESGPGLVKTSETLSLTCAVSGYSISSGYYWGWIRQPPGKGLEWIGSISHTGNTYYNPPLKSRVTISVDTSKNQFSLKLSSVTAADTAVYYCARGGGISRPEYWGKGTLVTVSS VL: SSELTQDPPVSVALGQTVTLTCQGDSLRTYYASWYQQKSGQAPILLLYGKHKRPSGIPDRFSGSTSGDTASLTITGAQAEDEADYYCNSRDSSGNPHVLFGGGTQLTVL was ~600 pM
